Kindly state IC50 for each of the entries shown.
Target: CYP3A4 (Homo sapiens, UniProt P08684)
Construct: 0.1 mg/mL human liver microsomes; from tissue; host or cells: human liver microsomes
Sequence (P08684 whole entry): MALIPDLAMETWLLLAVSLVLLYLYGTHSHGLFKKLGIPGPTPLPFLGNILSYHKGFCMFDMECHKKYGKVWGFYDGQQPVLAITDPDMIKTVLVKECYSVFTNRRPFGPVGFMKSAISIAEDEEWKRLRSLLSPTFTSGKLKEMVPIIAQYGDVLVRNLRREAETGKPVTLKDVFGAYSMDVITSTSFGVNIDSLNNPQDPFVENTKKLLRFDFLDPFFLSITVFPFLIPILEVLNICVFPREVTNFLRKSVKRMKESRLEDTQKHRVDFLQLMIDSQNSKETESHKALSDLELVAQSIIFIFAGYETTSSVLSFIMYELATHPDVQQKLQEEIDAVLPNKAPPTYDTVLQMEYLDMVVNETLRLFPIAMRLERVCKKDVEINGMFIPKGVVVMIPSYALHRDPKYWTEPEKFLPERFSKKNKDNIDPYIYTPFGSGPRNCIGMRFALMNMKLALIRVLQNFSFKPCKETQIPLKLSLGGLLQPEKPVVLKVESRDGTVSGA
Experiment: IC50 against CYP3A4 by inhibition of midazolam metabolism in human liver microsomes
Type: biochemical
Conditions: 0.1 mg/mL human liver microsomes, 2 μM midazolam, 1 mM NADPH, 1-hydroxymidazolam production, eight minutes; read-out: IC50, μM (HLM, midazolam)
Numbers only, in µM.

compound	tested.on	unit.of.measure	result.number
CCn1ccnc1CNC(=O)Cn1nc(-c2ccncc2)cc1Cc1ccc(F)cc1 [Example 79]	CYP3A4 (Homo sapiens, UniProt P08684)	µM	0.016
O=C(Cn1nc(-c2ccncc2)cc1Cc1ccc(F)cc1)N1CCC(N2CCOC2=O)CC1 [Example 118]	CYP3A4 (Homo sapiens, UniProt P08684)	µM	0.00837
CC(NC(=O)Cn1nc(-c2ccncc2)cc1Cc1ccc(F)cc1)c1cnn(C)c1 (centres unmarked) [Example 85]	CYP3A4 (Homo sapiens, UniProt P08684)	µM	0.031
C[C@@H](O)CNC(=O)Cn1nc(-c2ccncc2)cc1Cc1ccc(F)cc1 [Example 63]	CYP3A4 (Homo sapiens, UniProt P08684)	µM	0.04
CC(C)OC(=O)N(C)C1CCN(C(=O)Cn2nc(-c3ccncc3)cc2Cc2ccc(F)cc2)CC1 [Example 112]	CYP3A4 (Homo sapiens, UniProt P08684)	µM	0.006

# return IC50 for each item in the list
1. O=C(Cn1nc(-c2ccncn2)cc1Cc1ccc(F)cc1)N1CCN(c2ccccn2)CC1 [Example 97]
2. O=C(Cn1nc(-c2c[nH]cn2)cc1Cc1ccc(F)cc1)N1CCC[C@@H](O)C1 [Example 40]
3. Cc1noc(CCNC(=O)Cn2nc(-c3ccncc3)cc2Cc2ccc(F)cc2)n1 [Example 91]
4. CNC(=O)N(C)C1CCN(C(=O)Cn2nc(-c3ccncc3)cc2Cc2ccc(F)cc2)CC1 [Example 117]
5. C[C@H](O)CNC(=O)Cn1nc(-c2ccncc2)cc1Cc1ccc(F)cc1 [Example 64]
6. CC(=O)N(C)C1CCN(C(=O)Cn2nc(-c3c[nH]cn3)cc2Cc2ccc(F)cc2)CC1 [Example 122]

1: 0.045; 2: 0.446; 3: 0.019; 4: 0.011; 5: 0.028; 6: 0.62

# return IC50 for each item in the list
1. CC(O)Cn1nc(-c2ccncc2)cc1Cc1ccc(F)cc1 (centres unmarked) [Example 52]
2. COC(=O)N(C)C1CCN(C(=O)Cn2nc(-c3ccncc3)cc2Cc2ccc(F)cc2)C1 (centres unmarked) [Example 128]
3. OCCn1nc(Cc2ccc(F)cc2)cc1-c1ccncc1 [Example 30]
4. CCCN(C)C1(C(N)=O)CCN(C(=O)Cn2nc(-c3ccncc3)cc2Cc2ccc(F)cc2)CC1 [Example 92]
5. CC(=O)N1CCN(C(=O)Cn2nc(-c3ccncc3)cc2Cc2ccc(F)cc2)CC1 [Example 134]

[0.071, 0.022, 0.773, 0.007, 0.0169]

---

Molecular target: CYP3A4 (Homo sapiens, UniProt P08684)
Construct: 0.1 mg/mL human liver microsomes; from tissue; host or cells: human liver microsomes
Assay: IC50 against CYP3A4 by inhibition of midazolam metabolism in human liver microsomes
Format: biochemical
Settings: 0.1 mg/mL human liver microsomes, 2 μM midazolam, 1 mM NADPH, 1-hydroxymidazolam production, eight minutes; read-out: IC50, μM (HLM, midazolam)
Field 'label' (enum: true / false). Set to true when IC50 is strictly under 0.04 µM; else false.

cpd.smiles	label.class
Cc1nnc(Cn2nc(-c3ccncc3)cc2Cc2ccc(F)cc2)o1	false

Record CN(C(=O)C1CC1)C1CCN(C(=O)Cn2nc(-c3ccncc3)cc2Cc2ccc(F)cc2)CC1 : is its IC50 strictly below 0.04 µM?
true

Record Fc1ccc(Cc2cc(-c3ccncc3)nn2Cc2nc(-c3ncccn3)no2)cc1 : is its IC50 strictly below 0.04 µM?
false

Record CCC(=O)NC1CCN(C(=O)Cn2nc(-c3ccncc3)cc2Cc2ccc(F)cc2)CC1 : is its IC50 strictly below 0.04 µM?
true

Record NC(=O)[C@@H]1CCC[C@@H]1NC(=O)Cn1nc(-c2ccncc2)cc1Cc1ccc(F)cc1 : is its IC50 strictly below 0.04 µM?
true

Record CN(C)[C@@H]1CCN(C(=O)Cn2nc(-c3ccncc3)cc2Cc2ccc(F)cc2)C1 : is its IC50 strictly below 0.04 µM?
true

Record COC(=O)N(C)C1CCN(C(=O)Cn2nc(-c3ccncc3)cc2Cc2ccc(F)cc2)CC1 : is its IC50 strictly below 0.04 µM?
true

Record N[C@@H]1CCN(C(=O)Cn2nc(-c3ccncc3)cc2Cc2ccc(F)cc2)C1 : is its IC50 strictly below 0.04 µM?
false

---

Target: CYP3A4 (Homo sapiens, UniProt P08684)
Construct: 0.1 mg/mL human liver microsomes; from tissue; host or cells: human liver microsomes
Test: IC50 against CYP3A4 by inhibition of testosterone metabolism in human liver microsomes
Format: biochemical
Settings: 0.1 mg/mL human liver microsomes, 25 μM testosterone, 1 mM NADPH, 6-β-OH-testosterone production, eight minutes; read-out: IC50, μM (HLM, testosterone)
Field 'label' (enum: MET / NOT MET). Set to MET when IC50 is strictly under 0.03 µM; else NOT MET.

compound	label.class
Fc1ccc(Cc2cc(-c3ccncc3)nn2Cc2nc(N3CCOCC3)no2)cc1 [Example 70]	MET

Kindly review the next compound as well.
Record CNC(=O)N(C)C1CCN(C(=O)Cn2nc(-c3ccncc3)cc2Cc2ccc(F)cc2)C1 (centres unmarked) [Example 129] : is its IC50 strictly below 0.03 µM?
NOT MET

---

Target: recombinant CYP3A4+b5 enzyme (Supersomes®) (Homo sapiens)
Construct: purchased BD Biosciences (Woburn, Mass.)
Test: Kiapp against recombinant CYP3A4 enzyme (Supersomes), BFC substrate
Type: biochemical
Conditions: recombinant CYP3A4+b5 (BD Biosciences), 5 uM BFC, 200 uM NADPH, pre-incubation at least 30 minutes, pH 7.0, room temperature
Field 'label' (enum: Y / N). Set to Y when Ki is strictly under 0.02 µM; else N.

Some solved entries appear below for comparison.
compound	label.class
CNC1CCN(C(=O)Cn2nc(-c3ccncc3)cc2Cc2ccc(F)cc2)CC1	N
CC(=O)N(C)C1CCN(C(=O)Cn2nc(-c3ccncc3)cc2Cc2ccc(F)cc2)C1 (centres unmarked)	Y
CS(=O)(=O)CCN1CCN(C(=O)Cn2nc(-c3ccncc3)cc2Cc2ccc(F)cc2)CC1	Y
CC(C)(CN1CCOCC1)NC(=O)Cn1nc(-c2c[nH]nn2)cc1Cc1ccc(F)cc1	N
O=C(Cn1nc(-c2ccncc2)cc1Cc1ccc(F)cc1)N1CCC(N2CCOC2=O)CC1	Y
CC(=O)N(C)C1CCN(C(=O)Cn2nc(-c3c[nH]cn3)cc2Cc2ccc(F)cc2)CC1	N
O=C(Cn1nc(-c2ccncc2)cc1Cc1ccc(F)cc1)N1CCC(N2CCCCC2=O)CC1	Y

Kindly review the next compound as well.
Record CNC(=O)N(C)C1CCN(C(=O)Cn2nc(-c3ccncc3)cc2Cc2ccc(F)cc2)C1 (centres unmarked) : is its Ki strictly below 0.02 µM?
Y

---

Kindly state Ki for each of the entries shown.
Molecular target: recombinant CYP3A4-b5 enzyme (Baculosomes®) (Homo sapiens)
Construct: purchased Invitrogen (Carlsbad, Calif.)
Sequence (P08684 whole entry): as above
Experiment: Kiapp against recombinant CYP3A4 enzyme (Baculosomes), BFC substrate
Format: biochemical
Settings: recombinant CYP3A4-b5 (Invitrogen), 5 uM BFC, 200 uM NADPH, pre-incubation at least 30 minutes, pH 7.0, room temperature
Numbers only, in µM.

molecule	Ki / µM
CC(C)C(=O)N(C)C1CCN(C(=O)Cn2nc(-c3ccncc3)cc2Cc2ccc(F)cc2)CC1 [Example 11]	0.00841
CC(=O)N1CCN(C(=O)Cn2nc(-c3ccncc3)cc2Cc2ccc(F)cc2)CC1 [Example 134]	0.131
O=C(c1ncccn1)N1CC(n2nc(-c3ccncc3)cc2Cc2ccc(F)cc2)C1 [Example 68]	0.137

# return Ki for each item in the list
1. CC(C)(N)CNC(=O)Cn1nc(-c2ccncc2)cc1Cc1ccc(F)cc1 [Example 57]
2. O=C(Cn1nc(-c2ccncc2)cc1Cc1ccc(F)cc1)N[C@H]1CC[C@H](O)CC1 [Example 96]
3. CCc1nc(CNC(=O)Cn2nc(-c3ccncc3)cc2Cc2ccc(F)cc2)no1 [Example 80]
4. COC(=O)NC1CN(C(=O)Cn2nc(-c3ccncc3)cc2Cc2ccc(F)cc2)C1 [Example 124]

0.124
0.0227
0.0516
0.123

# return Ki for each item in the list
1. CNC1CCN(C(=O)Cn2nc(-c3ccncc3)cc2Cc2ccc(F)cc2)CC1 [Example 7]
2. Cc1c(CNC(=O)Cn2nc(-c3ccncc3)cc2Cc2ccc(F)cc2)cnn1C [Example 89]

1. 0.196
2. 0.0728

# return Ki for each item in the list
1. O=C(Cn1nc(-c2ccncc2)cc1Cc1ccc(F)cc1)N1CCC[C@H]1CO [Example 77]
2. CS(=O)(=O)NC1CN(C(=O)Cn2nc(-c3ccncc3)cc2Cc2ccc(F)cc2)C1 [Example 125]
3. COCCn1nc(-c2ccncc2)cc1Cc1ccc(F)cc1 [Example 31]

1: 0.166; 2: 0.0666; 3: 0.105

# return Ki for each item in the list
1. C[C@H](O)CNC(=O)Cn1nc(-c2ccncc2)cc1Cc1ccc(F)cc1 [Example 64]
2. CC(C)NC(=O)Cn1nc(-c2c[nH]cn2)cc1Cc1ccc(F)cc1 [Example 111]
3. Cc1noc(CNC(=O)Cn2nc(-c3ccncc3)cc2Cc2ccc(F)cc2)n1 [Example 90]
4. CC(=O)N(C)C1CCN(C(=O)Cn2nc(-c3ccncc3)cc2Cc2ccc(F)cc2)CC1 [Example 109]
5. O=C(Cn1nc(-c2ccncc2)cc1Cc1ccc(F)cc1)N1CC[C@@H](N2CCOCC2)C1 [Example 103]

1: 0.185; 2: 0.838; 3: 0.0773; 4: 0.0643; 5: 0.106
